Source listed as patent US20230117470A1.

Each entry below carries its reported pIC50.
# assayedSystem: human TLR9 (Homo sapiens)
# Sequence (Q9NR96 26-1032): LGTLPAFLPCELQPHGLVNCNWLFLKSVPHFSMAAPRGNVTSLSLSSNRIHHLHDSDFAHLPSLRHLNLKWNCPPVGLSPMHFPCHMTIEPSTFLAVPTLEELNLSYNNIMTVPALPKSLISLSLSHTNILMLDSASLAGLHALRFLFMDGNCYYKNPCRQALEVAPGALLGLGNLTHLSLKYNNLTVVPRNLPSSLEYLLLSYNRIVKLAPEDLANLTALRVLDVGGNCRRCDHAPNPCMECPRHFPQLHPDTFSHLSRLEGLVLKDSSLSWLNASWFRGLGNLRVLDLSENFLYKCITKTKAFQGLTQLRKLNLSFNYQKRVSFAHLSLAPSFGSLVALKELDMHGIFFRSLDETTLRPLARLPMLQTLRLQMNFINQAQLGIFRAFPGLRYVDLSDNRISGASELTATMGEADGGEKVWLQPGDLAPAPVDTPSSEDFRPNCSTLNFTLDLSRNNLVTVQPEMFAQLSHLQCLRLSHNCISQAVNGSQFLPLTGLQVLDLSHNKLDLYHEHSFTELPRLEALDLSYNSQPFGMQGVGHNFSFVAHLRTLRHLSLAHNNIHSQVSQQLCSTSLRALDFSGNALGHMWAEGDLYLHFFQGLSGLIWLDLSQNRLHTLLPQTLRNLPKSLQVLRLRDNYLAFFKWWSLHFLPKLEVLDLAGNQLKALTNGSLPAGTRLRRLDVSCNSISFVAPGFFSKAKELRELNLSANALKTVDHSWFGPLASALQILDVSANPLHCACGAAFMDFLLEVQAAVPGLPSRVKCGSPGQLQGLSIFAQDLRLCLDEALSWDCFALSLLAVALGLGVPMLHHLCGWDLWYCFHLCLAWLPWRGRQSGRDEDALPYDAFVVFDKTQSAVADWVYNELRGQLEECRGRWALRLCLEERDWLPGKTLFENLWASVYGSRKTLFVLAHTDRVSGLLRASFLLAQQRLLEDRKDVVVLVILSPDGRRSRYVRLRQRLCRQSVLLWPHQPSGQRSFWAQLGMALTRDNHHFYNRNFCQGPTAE
# assayProtocol: TLR9 inhibition reporter assay (HEK-Blue cells, SEAP reporter, ODN2006 stimulation)
# runConditions: HEK-Blue cells overexpressing human TLR9, SEAP reporter, ODN2006 5 nM
Notebook: values listed as pIC50 are -log10 of the concentration (mol/L).

Record excerpt, results attached:
| compound | assayedSystem | pIC50 |
| --- | --- | --- |
| COc1cc(-c2[nH]nc(-c3cnc(C4CCN(C5CCC5)CC4)cn3)c2C(C)C)cn2ncnc12 | human TLR9 (Homo sapiens) | 4.94 |
| Cc1cc(-c2[nH]nc(C3CCC(NC4CCN(C(C)C)CC4)CC3)c2C(C)C)cn2ncnc12 (single isomer, unassigned) [Example 288] | human TLR9 (Homo sapiens) | 4.85 |
| CCN1CCC(c2ccc(-c3n[nH]c(-c4cc(C)c5ncnn5c4)c3C(C)C)cc2)CC1 | human TLR9 (Homo sapiens) | 4.72 |
| Cc1cc(-c2[nH]nc(-c3nc4c(s3)CNCC4)c2C(C)C)cn2ncnc12 | human TLR9 (Homo sapiens) | 4.44 |
| COc1cc(-c2[nH]nc(-c3cnc(C4CCN(CC5CCOCC5)CC4)cn3)c2C(C)C)cn2ncnc12 | human TLR9 (Homo sapiens) | 5.20 |

Incoming: Form field: reported pIC50 of `Cc1cc(-c2[nH]nc(C(=O)NC3CN(CC4(C)COC4)C3)c2C(C)C)cn2ncnc12`
Outgoing: 5.03

Incoming: Form field: reported pIC50 of `Cc1cc(-c2[nH]nc(-c3ccc(C4CCN(C5COC5)CC4)cc3)c2C(C)C)cn2ncnc12`
Outgoing: 4.72
